Target: T1, human MSLN-FL-his protein (human, UniProt Q13421 296-580)
T1 construct: Self-made in HEK293E cells; also called human MSLN full-length protein; hMSLN-FL-his; not shown: His tag
T1 sequence (Q13421 other isoform, or with tags, fused parts or gaps): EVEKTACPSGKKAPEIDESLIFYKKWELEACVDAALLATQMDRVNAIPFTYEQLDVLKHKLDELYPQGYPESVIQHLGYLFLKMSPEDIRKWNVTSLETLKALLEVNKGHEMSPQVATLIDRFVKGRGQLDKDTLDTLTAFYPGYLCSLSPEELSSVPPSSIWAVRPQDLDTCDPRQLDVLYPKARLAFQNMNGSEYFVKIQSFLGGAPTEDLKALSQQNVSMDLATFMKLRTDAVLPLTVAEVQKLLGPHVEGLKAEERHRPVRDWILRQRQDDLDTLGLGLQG
Assay: ELISA on coated antigen, no antibody (column none)
Task for the reader: assign each of the following binders its reported OD450.
Write the value in OD450 as a bare number.

Which OD450 reading was recorded for the binder S009-F3.74.20 (antibody, human IgG1, kappa, V domains shown, Human-murine chimeric antibody: murine VH/VL on human IgG1 heavy and kappa light constant regions) VH: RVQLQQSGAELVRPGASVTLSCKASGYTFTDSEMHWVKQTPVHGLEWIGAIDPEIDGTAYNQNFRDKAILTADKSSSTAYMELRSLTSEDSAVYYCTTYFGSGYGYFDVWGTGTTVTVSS VL: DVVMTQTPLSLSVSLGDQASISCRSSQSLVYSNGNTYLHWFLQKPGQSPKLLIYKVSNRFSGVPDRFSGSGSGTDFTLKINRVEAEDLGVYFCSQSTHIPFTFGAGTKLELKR ?
0.08

Which OD450 reading was recorded for the binder S009-F3.45.21 (antibody, human IgG1, kappa, V domains shown, Human-murine chimeric antibody: murine VH/VL on human IgG1 heavy and kappa light constant regions) VH: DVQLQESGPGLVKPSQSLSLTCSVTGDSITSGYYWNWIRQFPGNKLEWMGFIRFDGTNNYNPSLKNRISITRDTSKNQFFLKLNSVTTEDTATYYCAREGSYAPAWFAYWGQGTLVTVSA VL: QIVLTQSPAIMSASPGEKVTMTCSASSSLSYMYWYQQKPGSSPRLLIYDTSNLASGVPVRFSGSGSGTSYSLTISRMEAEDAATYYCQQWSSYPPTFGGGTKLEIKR ?
0.08

Which OD450 reading was recorded for the binder S009-F3.7.3 (antibody, human IgG1, kappa, V domains shown, Human-murine chimeric antibody: murine VH/VL on human IgG1 heavy and kappa light constant regions) VH: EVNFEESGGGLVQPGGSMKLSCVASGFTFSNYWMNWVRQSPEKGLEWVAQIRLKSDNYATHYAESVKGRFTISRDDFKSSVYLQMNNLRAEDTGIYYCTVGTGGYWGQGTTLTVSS VL: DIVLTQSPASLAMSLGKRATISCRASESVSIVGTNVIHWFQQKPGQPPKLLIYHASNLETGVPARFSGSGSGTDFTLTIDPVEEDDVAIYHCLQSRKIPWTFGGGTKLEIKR ?
0.08
